Data provenance is the supplement of paper PMC10065799.

Target: Fes (UniProt P07332)
Sequence (P07332 whole entry, looked up): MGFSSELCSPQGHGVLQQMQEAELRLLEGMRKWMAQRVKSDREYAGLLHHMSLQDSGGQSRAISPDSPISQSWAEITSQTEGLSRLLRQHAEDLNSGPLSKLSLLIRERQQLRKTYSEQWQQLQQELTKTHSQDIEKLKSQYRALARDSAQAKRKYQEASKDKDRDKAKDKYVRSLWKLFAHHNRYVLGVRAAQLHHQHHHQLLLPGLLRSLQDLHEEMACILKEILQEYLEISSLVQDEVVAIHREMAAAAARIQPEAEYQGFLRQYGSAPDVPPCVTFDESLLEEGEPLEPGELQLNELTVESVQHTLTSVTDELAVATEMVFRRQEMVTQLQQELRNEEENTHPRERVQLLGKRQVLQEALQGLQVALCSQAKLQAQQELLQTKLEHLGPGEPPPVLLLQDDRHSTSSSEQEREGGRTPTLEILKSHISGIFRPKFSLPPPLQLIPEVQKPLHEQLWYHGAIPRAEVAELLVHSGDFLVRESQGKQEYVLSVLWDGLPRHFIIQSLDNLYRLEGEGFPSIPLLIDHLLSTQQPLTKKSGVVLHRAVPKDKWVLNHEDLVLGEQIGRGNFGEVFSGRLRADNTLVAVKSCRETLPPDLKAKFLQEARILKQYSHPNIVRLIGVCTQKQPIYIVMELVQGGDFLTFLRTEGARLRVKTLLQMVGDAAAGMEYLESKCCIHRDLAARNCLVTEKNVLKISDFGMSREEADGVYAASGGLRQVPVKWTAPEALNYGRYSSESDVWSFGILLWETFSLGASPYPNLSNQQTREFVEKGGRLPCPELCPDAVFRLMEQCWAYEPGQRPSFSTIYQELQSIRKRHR
Experiment: phosphorylation enrichment, bacterial display (enrichment ratio); higher = better substrate or ligand; peptides without Tyr show the background;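 also: 11-residue human phosphosite peptides and single-mutation variants displayed on the E. coli surface, counted by deep sequencing, each peptide's frequency after selection divided by its frequency in the unselected input library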;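 also: frequency after pTyr selection over input frequency; kinase dosed for 20-30% of maximal phosphorylation in three min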
Rule: satisfied for phosphorylation enrichment not less than 1, not satisfied for anything less.

{"columns": ["BIOSEQUENCE", "CLASS"],
 "data": [
  ["LFHENYNAGTF [CFI_Y421_I416L_YF]", "satisfied"],
  ["KKKKQYKGKFL [CASK_Y708_D710G_YF]", "not satisfied"],
  ["HMEAVYIDIAD [PITPNA_Y140_V136M]", "satisfied"],
  ["YSIDYYRVGGH [NTRK2_Y707_T704I]", "not satisfied"],
  ["LQKPMYEVQWK [KIT_Y553]", "satisfied"],
  ["IHFAIYLLKFS [ARMC9_Y107_YF]", "satisfied"],
  ["IRRIAYEFVEM [ADA_Y84_K80R]", "not satisfied"],
  ["ASYGPNTRVQS [FOXL2_Y258_Y258N]", "not satisfied"],
  ["GFILMYDITNK [RAB3C_Y110_E115K]", "satisfied"],
  ["KVKPIYLHTQG [AR_Y916_F917L]", "not satisfied"],
  ["ETKKQYDSFTF [TMED3_Y85_YF]", "not satisfied"],
  ["YIPFRYPKEFQ [IDS_Y234_H229Y]", "not satisfied"],
  ["QEGPEYWDRNT [HLA-B_Y83]", "satisfied"],
  ["NNKKDYFDMFE [SLC26A3_Y526_K521N_YF]", "satisfied"],
  ["EVEFEYPFRLH [SYP_Y73]", "satisfied"],
  ["PNLILYGDFRQ [MYH7_Y715_R712L]", "satisfied"],
  ["GSIQQYTFKQE [PRG4_Y1271_I1272T_YF]", "not satisfied"],
  ["TTKAKYKTPTF [PLD2_Y573_YF]", "not satisfied"],
  ["GLRSYYETSKM [MAGED2_Y449]", "not satisfied"],
  ["CCNHPYRINGA [CHD7_Y1256_L1257R]", "not satisfied"],
  ["GKGGSYSQAAS [HLA-B_Y344_C349S]", "not satisfied"],
  ["GGYNNYGYGND [HNRNPH3_Y159]", "not satisfied"],
  ["KNRDVSSSDYF [USP24_Y2134_Y2134S]", "not satisfied"],
  ["SVVLPYEPPEV [TP53_Y220_V218L]", "satisfied"],
  ["RVLHNYLVWRV [ECEL1_Y400]", "satisfied"],
  ["TDIVAYSGRVQ [SPTBN2_Y477]", "not satisfied"],
  ["PGQRVYVVAES [SHH_Y316_R321S]", "satisfied"],
  ["IDFARYWHGND [MMP11_Y162_D166N]", "not satisfied"],
  ["GGFTRYCDGKK [PROS1_Y266_C265R_YF]", "not satisfied"],
  ["ALHRPYGCDVE [ABL2_Y80]", "not satisfied"],
  ["TGDFGYRAPGF [TNS2_Y668_YF]", "not satisfied"],
  ["NVQIVYKPVDL [MAPT_Y627_S622N]", "not satisfied"],
  ["SYPHEYGSQEG [RBM10_Y48_R46H]", "not satisfied"],
  ["KDPPDYKFQPR [SOX9_Y172_H169P_YF]", "not satisfied"],
  ["RENGPYFTSFP [GDAP2_Y487_YF]", "satisfied"],
  ["RNDQVYQPLRD [CD3D_Y149]", "not satisfied"],
  ["LGSNTYPFLLT [SAG_Y120]", "satisfied"],
  ["FAELVYTGFWH [ASS1_Y322]", "satisfied"],
  ["PPNSPYIGSSP [KCNT1_Y740]", "not satisfied"],
  ["PSARTYCFKQE [KLHDC9_Y175_YF]", "not satisfied"],
  ["QRRYLYYYSYL [PTEN_Y176_V175L]", "not satisfied"],
  ["TEGNEYVFRVA", "satisfied"],
  ["LRRREYQRQDY [PRKRIP1_Y90]", "not satisfied"],
  ["ISSLPYMKMIF [SLC4A11_Y853_M848I]", "satisfied"]
]}
